The values you see were collected from patent US20230165252A1.

- experimentSummary: Measurement of Log P values by HPLC on reversed phase columns (EEC directive 79/831 Annex V.A8), methods [a], [b], [c]
- Assay type: physicochemical
- testConditions: reversed-phase HPLC column, method [a]: LC-UV, acidic range, 0.1% formic acid in water and acetonitrile as eluent (10% to 95% acetonitrile); Table 3, compounds of formula (1)
Param threshold (4) applies to chromatographic logP; output yes (1) when value >= threshold, no (0) when value < threshold.

- sampleSmiles: "COC(=O)c1c(Oc2cccc(C(F)(F)F)c2)nnc(Cl)c1-c1ccccc1"
  groupLabel: "yes (1)"
- sampleSmiles: "COC(=O)c1cc(Cl)nnc1Oc1cccc(C2CC2)c1F"
  groupLabel: "no (0)"
- sampleSmiles: "CCOC(=O)c1c(Oc2cccc(C3CC3)c2)nnc(Cl)c1Cl"
  groupLabel: "yes (1)"
- sampleSmiles: "COC(=O)c1cc(Cl)nnc1Oc1cccc(C(F)F)c1"
  groupLabel: "no (0)"

====

- experimentSummary: Measurement of Log P values by HPLC on reversed phase columns (EEC directive 79/831 Annex V.A8), methods [a], [b], [c]
- Format: physicochemical
- testConditions: reversed-phase HPLC column, method [b]

- sampleSmiles: "O=C(NCC(F)(F)c1ccc(Br)cc1Cl)c1cc(Cl)nnc1Cl"
  chromatographic logP: 3.24

====

- experimentSummary: Measurement of Log P values by HPLC on reversed phase columns (EEC directive 79/831 Annex V.A8), methods [a], [b], [c]
- Type: physicochemical
- testConditions: method [a]
Listed next: entries and their corresponding LogP.

- molecule: "Cc1ccc(C(F)CNC(=O)c2c(Cl)nnc(Cl)c2C)c(Cl)c1 (racemic)"
  LogP: "3.22^[a]"
- molecule: "COc1ccc(CCNC(=O)c2c(Oc3cccc(C(F)(F)F)c3)nnc(Cl)c2C)c(OC)c1"
  LogP: "3.65^[a]"
- molecule: "Cc1cnn(CCNC(=O)c2cc(C)nnc2Oc2cccc(C(F)(F)F)c2)c1"
  LogP: "2.58^[a]"
- molecule: "CC(NC(=O)c1cc(Cl)nnc1Cl)c1cn(C)c2ccccc12 (racemic)"
  LogP: "2.71^[a]"
- molecule: "Cc1ccc(C(F)(F)CNC(=O)c2cc(CC3CCC3)nnc2Oc2cccc(C(F)(F)F)c2)c(C)c1"
  LogP: "5.02^[a]"
- molecule: "COCCc1cc(C(=O)NCC(F)(F)c2ccc(C)cc2C)c(Oc2cccc(C(F)(F)F)c2)nn1"
  LogP: "4.00^[a]"
- molecule: "O=C(NCCc1ncc(Cl)cn1)c1cc(Cl)nnc1Oc1cccc(C(F)(F)F)c1"
  LogP: "3.05^[a]"
- molecule: "C#Cc1cc(C(=O)NCC(F)(F)c2ccc(C)cc2C)c(Oc2cccc(C(F)(F)F)c2)nn1"
  LogP: "4.31^[a]"

====

- System: Diaporthe citri
- experimentSummary: in vitro-Test with Diaporthe citri (microtiter growth inhibition)
- Type: cell-based
- testConditions: Diaporthe citri, applied alone, 4 ppm; read-out: Efficacy
readoutType: inhibition of growth at 4 ppm (%)

- compound: "N#Cc1sc2c(=O)c3ccccc3c(=O)c=2sc1C#N [dithianon]"
  readoutType: "inhibition of growth at 4 ppm"
  assayResult: 98
- compound: "Cc1cc(C)nc(Nc2ccccc2)n1 [pyrimethanil]"
  readoutType: "inhibition of growth at 4 ppm"
  assayResult: 94
- compound: "O=C(NCCc1ncc(C(F)(F)F)cc1Cl)c1ccccc1C(F)(F)F [fluopyram]"
  readoutType: "inhibition of growth at 4 ppm"
  assayResult: 0
- compound: "CCCN(CC)CC1COC2(CCC(C(C)(C)C)CC2)O1 (stereo not shown) [spiroxamine]"
  readoutType: "inhibition of growth at 4 ppm"
  assayResult: 0

====

- experimentSummary: Measurement of Log P values by HPLC on reversed phase columns (EEC directive 79/831 Annex V.A8), methods [a], [b], [c]
- Format: physicochemical
- testConditions: reversed-phase HPLC column, HPLC method [b]
readoutType: chromatographic logP

- molecule: "Cc1ccc(C(F)(F)CNC(=O)c2c(Oc3cccc(C(F)(F)F)c3)nnc(Cl)c2NC2COC2)c(C)c1 [Compound I-408]"
  readoutType: "chromatographic logP"
  assayResult: 3.94

====

Listed next: entries and their corresponding inhibition of growth at 4 ppm.
- System: Alternaria alternate
- experimentSummary: in vitro-Test with Alternaria alternate (microtiter growth inhibition)
- Type: cell-based
- testConditions: Alternaria, 4 ppm, alone; read-out: Efficacy %

- molecule: "CCCN(CC)CC1COC2(CCC(C(C)(C)C)CC2)O1 (stereo not shown)"
  testTarget: "Alternaria alternate"
  scaleUnit: "%"
  inhibition of growth at 4 ppm: 1
- molecule: "O=C(NCCc1ncc(C(F)(F)F)cc1Cl)c1ccccc1C(F)(F)F"
  testTarget: "Alternaria alternate"
  scaleUnit: "%"
  inhibition of growth at 4 ppm: 94
- molecule: "N#Cc1sc2c(=O)c3ccccc3c(=O)c=2sc1C#N"
  testTarget: "Alternaria alternate"
  scaleUnit: "%"
  inhibition of growth at 4 ppm: 71
- molecule: "Cc1cc(C)nc(Nc2ccccc2)n1"
  testTarget: "Alternaria alternate"
  scaleUnit: "%"
  inhibition of growth at 4 ppm: 99

====

Listed next: entries and their corresponding LogP.
- experimentSummary: Measurement of Log P values by HPLC on reversed phase columns (EEC directive 79/831 Annex V.A8), methods [a], [b], [c]
- Format: physicochemical
- testConditions: method [a]: LC-UV, acidic range, 0.1% formic acid in water and acetonitrile as eluent (10% to 95% acetonitrile); Table 3, compounds of formula (1)

- sampleSmiles: "Cc1c(Cl)nnc(Oc2cccc(C3CC3)c2F)c1C(=O)O"
  LogP: "1.84^[a]"
- sampleSmiles: "CC(C)OC(=O)c1cc(Cl)nnc1Oc1cncc(C(F)F)c1"
  LogP: "2.82^[a]"
- sampleSmiles: "O=C(O)c1cc(I)nnc1Oc1cccc(C(F)(F)F)c1"
  LogP: "2.08^[a]"
- sampleSmiles: "Cc1nnc(Oc2cccc(C(F)(F)F)c2F)c(C(=O)O)c1C"
  LogP: "1.40^[a]"
- sampleSmiles: "O=C(O)c1cc(-c2ccncc2Cl)nnc1Oc1cccc(F)c1F"
  LogP: "1.22^[a]"
- sampleSmiles: "O=C(O)c1cc(Cl)nnc1Oc1cccc(Br)c1"
  LogP: "1.66^[a]"
- sampleSmiles: "Cc1cc(C(=O)O)c(Oc2cccc(C(F)(F)F)c2)nn1"
  LogP: "1.92^[a]"
- sampleSmiles: "Cc1cc(C(=O)O)c(Oc2cccc(C(F)F)c2)nn1"
  LogP: "1.36^[a]"
- sampleSmiles: "O=C(O)c1cc(Cl)nnc1Oc1cccc(F)c1F"
  LogP: "1.65^[a]"
- sampleSmiles: "Cc1cc(C(=O)O)c(Oc2cncc(C(F)(F)F)c2)nn1"
  LogP: "1.01^[a]"
- sampleSmiles: "O=C(O)c1cc(Cl)nnc1Oc1cncc(C(F)(F)F)c1"
  LogP: "1.31^[a]"
- sampleSmiles: "Cc1nnc(Oc2cccc(Cl)c2)c(C(=O)O)c1C"
  LogP: "0.80^[a]"
- sampleSmiles: "Cc1c(Cl)nnc(Oc2cccc(Cl)c2F)c1C(=O)O"
  LogP: "1.68^[a]"
- sampleSmiles: "O=C(O)c1cc(C(F)(F)F)nnc1Oc1cccc(C(F)(F)F)c1"
  LogP: "2.27^[a]"
- sampleSmiles: "Cc1nnc(Oc2cccc(C3CC3)c2F)c(C(=O)O)c1C"
  LogP: "1.31^[a]"
- sampleSmiles: "O=C(O)c1cc(N2CCCC2)nnc1Oc1cccc(C(F)(F)F)c1"
  LogP: "1.08^[a]"
- sampleSmiles: "COC(=O)c1c(Oc2cccc(C(F)(F)F)c2)nnc(Cl)c1-n1cccn1"
  LogP: "3.53^[a]"
- sampleSmiles: "C#Cc1cccc(Oc2nnc(Cl)cc2C(=O)O)c1"
  LogP: "1.50^[a]"
- sampleSmiles: "N#Cc1cc(C(=O)O)c(Oc2cccc(C(F)(F)F)c2)nn1"
  LogP: "1.74^[a]"

====

- experimentSummary: Measurement of Log P values by HPLC on reversed phase columns (EEC directive 79/831 Annex V.A8), methods [a], [b], [c]
- Assay type: physicochemical
- testConditions: reversed-phase HPLC column, HPLC on reversed phase column, method [a]
Listed next: entries and their corresponding chromatographic logP.

- molecule: "COCCc1c(Cl)nnc(Oc2cccc(C(F)(F)F)c2)c1C(=O)NCC(F)(F)c1ccc(Br)cc1Cl [Compound I-070]"
  chromatographic logP: 4.77
- molecule: "Cc1ccc(C(F)(F)CNC(=O)c2cc(Cl)nnc2Oc2cccc(C(F)(F)F)c2)c(C)c1 [Compound I-014]"
  chromatographic logP: 4.46
- molecule: "Cc1ccc(CCNC(=S)c2cc(C)nnc2Oc2cccc(C(F)(F)F)c2)c(C)c1 [Compound I-094]"
  chromatographic logP: 4.69
- molecule: "Cc1ccc(C(F)(F)CNC(=O)c2c(Oc3cccc(C(F)(F)F)c3)nnc(Cl)c2I)c(C)c1 [Compound I-020]"
  chromatographic logP: 4.61
- molecule: "Cc1ccc(C(F)(F)CNC(=O)c2c(Oc3cccc(C4CC4)c3F)nnc(Cl)c2C)c(Br)c1 [Compound I-840]"
  chromatographic logP: 4.57
